Task for the reader: assign each of the following molecules its reported IC50 at 48 h.
method.notes: in vitro
Format: cell-based
run.parameters: human, MCF-7 cells; 48 h incubation, 1:3 dilutions starting from 200 μM; read-out: Cytotoxicity MCF-7 IC50
Protocol: Potential cell toxicity of the tested compounds was evaluated by ATP quantification using the CellTiter-Glo® luminescent cell viability assay (Promega, Madison, WI, USA). […] After incubation, 20 µL of CellTiter-Glo® reagent were added per well and incubated at room temperature in the dark for another 30 min. Luminescence was quantified by an EnVision multi-plate reader (PerkinElmer, Rodgau, Germany).
Numbers only, in µM.

O=c1oc(Cl)c(Cl)c2ccccc12 [3,4-DIC, 3,4-dichloroisocoumarin] : 9.06

Next molecule, IC50 at 48 h to be filled in.
Memo: CO[C@@]1(NC(=O)CSCC#N)C(=O)N2C(C(=O)O)=C(CSc3nnnn3C)CS[C@@H]21 [Cefmetazole, cefmetazole] , reported IC50 at 48 h: 74.1

----------
method.notes: in vitro
Format: cell-based
run.parameters: human, HTC-116 cells; 48 h incubation, 1:3 dilutions starting from 200 μM; read-out: Cytotoxicity HTC-116 IC50
Task for the reader: assign each of the following compounds its reported IC50 at 48 h.
Answers are plain numbers, in µM.

Below are 2 compounds. Give each one its IC50 at 48 h.
1. O=c1oc(Cl)c(Cl)c2ccccc12
2. CO[C@@]1(NC(=O)CSCC#N)C(=O)N2C(C(=O)O)=C(CSc3nnnn3C)CS[C@@H]21

output:
1: 45.1; 2: 5430

----------
Test system: MCF-7 cells
method.notes: in vitro
Assay type: cell-based
run.parameters: 48 h incubation, 1:3 dilutions starting from 200 μM; read-out: Cytotoxicity MCF-7 IC50
Peptide text beside a SMILES is read from it.
Task for the reader: assign each of the following molecules its reported IC50.
One number for each entry, in µM.

Below, each entry is followed by its recorded IC50 result.
N.N.[Cl][Pt][Cl] [Cisplatin, cisplatin] : 4.52
CC(C)C[C@H](NC(=O)OCc1ccccc1)C(=O)N[C@@H](Cc1ccc(O)cc1)C(=O)CCl [Z-LY-CMK] (HELM PEPTIDE1{[O=C(OCc1ccccc1)[*:2]].L.Y.[ClC[*:1]]}$$$$V2.0) : 0.05

Next molecule, IC50 to be filled in.
Memo: N.N.[Cl-].[Cl][Pt+].c1ccncc1 , reported IC50: 3.27

----------
tested.target: E. coli ClpP (Escherichia coli, UniProt P0A6G7)
Construct: His-tag; made in house; host or cells: E. coli SG1146a
Sequence (P0A6G7 15-207): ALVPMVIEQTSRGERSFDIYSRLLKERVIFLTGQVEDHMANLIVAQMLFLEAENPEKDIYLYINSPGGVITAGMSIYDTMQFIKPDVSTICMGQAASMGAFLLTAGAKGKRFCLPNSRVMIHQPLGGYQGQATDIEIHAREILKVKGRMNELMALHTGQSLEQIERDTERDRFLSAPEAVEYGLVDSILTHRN
method.notes: Surface plasmon resonance binding to immobilized ClpP
run.parameters: 80 µM, injected over 7 min, 30 min dissociation
quantity.kind: Covalent / irreversible binding to ClpP by SPR

O=c1oc(Cl)c(Cl)c2ccccc12 : covalent binding
CC(C)C[C@H](NC(=O)[C@H](Cc1ccccc1)NC(=O)c1cnccn1)B(O)O : covalent binding

----------
tested.target: bovine α-chymotrypsin (Bos taurus, UniProt P00766)
Construct: purchased Sigma-Aldrich C4129
method.notes: Serine protease selectivity assay with bovine α-chymotrypsin (Suc-LY-AMC)
Format: biochemical
run.parameters: 200 μM compound concentration
quantity.kind: Inhibition (%) at 200 μM α-Chymotrypsin

O=c1oc(Cl)c(Cl)c2ccccc12 [3,4-DIC, 3,4-dichloroisocoumarin] : completely inhibited
N.N.[Cl-].[Cl][Pt+].c1ccncc1 [cDPCP] : 84.7%
CC(C)C[C@H](NC(=O)[C@H](Cc1ccccc1)NC(=O)c1cnccn1)B(O)O [Bortezomib, bortezomib] : completely inhibited

----------
Task for the reader: assign each of the following compounds its reported pIC50.
Tested on: A549 cells
method.notes: in vitro
Format: cell-based
run.parameters: 48 h incubation, 1:3 dilutions starting from 200 μM; read-out: Cytotoxicity A549 IC50
Method: Potential cell toxicity of the tested compounds was evaluated by ATP quantification using the CellTiter-Glo® luminescent cell viability assay (Promega, Madison, WI, USA). […] After incubation, 20 µL of CellTiter-Glo® reagent were added per well and incubated at room temperature in the dark for another 30 min. Luminescence was quantified by an EnVision multi-plate reader (PerkinElmer, Rodgau, Germany).
Peptide text beside a SMILES is read from it.
Answers are plain numbers, as −log10 of the molar value.

N.N.[Cl-].[Cl][Pt+].c1ccncc1 [cDPCP] : 3.88
CC(C)C[C@H](NC(=O)OCc1ccccc1)C(=O)N[C@@H](Cc1ccc(O)cc1)C(=O)CCl [Z-LY-CMK] (HELM PEPTIDE1{[O=C(OCc1ccccc1)[*:2]].L.Y.[ClC[*:1]]}$$$$V2.0) : 5.15

Next compound, pIC50 to be filled in.
Memo: N.N.[Cl][Pt][Cl] [Cisplatin, cisplatin] , reported pIC50: 4.06

----------
Task for the reader: assign each of the following molecules its reported E. coli ClpP inhibition [%] in the primary screen.
tested.target: E. coli ClpP (Escherichia coli, UniProt P0A6G7)
Construct: His-tag; made in house; host or cells: E. coli SG1146a
method.notes: Fluorescence-based E. coli ClpP proteolytic activity assay (Suc-LY-AMC), primary screen and dose-response
Assay type: biochemical
run.parameters: primary screen, 200 µM

Below, each entry is followed by its recorded E. coli ClpP inhibition [%] in the primary screen result.
N.N.O=C([O-])C1(C(=O)[O-])CCC1.[Pt+2] [carboplatin] : 5.4%
CCOC(=O)[C@@H](N)CCC(=O)N[C@@H](CSCc1ccccc1)C(=O)N[C@@H](C(=O)OCC)c1ccccc1 [Ezatiostat] : 88.80%
CC1=C(/C=C/C(C)=C/C=C/C(C)=C/C(=O)Nc2ccc(O)cc2)C(C)(C)CCC1 [Retinoic acid p-hydroxyanilide] : 74.12%

Below are 4 molecules. Give each one its E. coli ClpP inhibition [%] in the primary screen.
1. N.N.[Cl][Pt][Cl] [Cisplatin, cisplatin]
2. N=C(N)N/N=C/c1c(Cl)cccc1Cl [guanabenz]
3. O=C(CCC1CCCC1)NCCN1CCOCC1
4. O=C(O)Cn1c(C(=O)Nc2nc(-c3ccccc3Cl)cs2)cc2ccccc21 [SR 27897 hydrate]

output:
1: 96.54%; 2: > 90%; 3: 84.44%; 4: 84.71%

Below are 3 molecules. Give each one its E. coli ClpP inhibition [%] in the primary screen.
1. O=C(O)C1CCCCC1C(=O)Nc1ccc(S(=O)(=O)NC2CCCCC2)cc1 (stereo not shown)
2. CC(C)C[C@H](NC(=O)[C@H](Cc1ccccc1)NC(=O)c1cnccn1)B(O)O [Bortezomib, bortezomib]
3. CO[C@@]1(NC(=O)CSCC#N)C(=O)N2C(C(=O)O)=C(CSc3nnnn3C)CS[C@@H]21 [Cefmetazole, cefmetazole]

output:
1: 72.93%; 2: > 90%; 3: > 90%

Below are 3 molecules. Give each one its E. coli ClpP inhibition [%] in the primary screen.
1. C[n+]1ccccc1CC(=O)c1ccc(Br)cc1.[I-] [S 24795]
2. O=c1oc(Cl)c(Cl)c2ccccc12 [3,4-DIC, 3,4-dichloroisocoumarin]
3. CCc1ccc(/C=C2/SC(=S)NC2=O)cc1 [10058-F4]

output:
1. 76.27%
2. > 90%
3. 72.82%

----------
tested.target: E. coli ClpP (Escherichia coli, UniProt P0A6G7)
Construct: His-tag; made in house; host or cells: E. coli SG1146a
method.notes: Fluorescence-based E. coli ClpP proteolytic activity assay (Suc-LY-AMC), primary screen and dose-response
Type: biochemical
Task for the reader: assign each of the following compounds its reported pIC50.
One number for each entry, as −log10 of the molar value.

CO[C@@]1(NC(=O)CSCC#N)C(=O)N2C(C(=O)O)=C(CSc3nnnn3C)CS[C@@H]21 [Cefmetazole, cefmetazole] : 5.47
O=c1oc(Cl)c(Cl)c2ccccc12 [3,4-DIC, 3,4-dichloroisocoumarin] : 5.31

Memo: CC(C)C[C@H](NC(=O)[C@H](Cc1ccccc1)NC(=O)c1cnccn1)B(O)O [Bortezomib, bortezomib] , reported pIC50: 7.40

----------
Task for the reader: assign each of the following compounds its reported inhibition at 200 µM.
tested.target: E. coli ClpP (Escherichia coli)
Construct: His-tag; made in house; host or cells: E. coli SG1146a
method.notes: Fluorescence-based E. coli ClpP proteolytic activity assay (Suc-LY-AMC), primary screen and dose-response
Format: biochemical
run.parameters: read-out: E. coli ClpP inhibition [%] in the primary screen, primary screen, 200 µM
Give bare numbers, in %.

Below are 4 compounds. Give each one its inhibition at 200 µM.
1. CC(=O)Oc1ccccc1C(=O)Nc1ncc([N+](=O)[O-])s1 [Nitazoxanide]
2. O=C(O)CCNC(=O)c1ccc(/N=N/c2ccc(O)c(C(=O)O)c2)cc1 [Balsalazide]
3. N#CC(C#N)=Cc1ccc(O)c(O)c1 [Tyrphostin 23]
4. CC(C)C[C@H](NC(=O)[C@H](Cc1ccccc1)NC(=O)c1cnccn1)B(O)O [Bortezomib, bortezomib]

output:
1: 80; 2: 76.5; 3: 79.3; 4: 100
